Origin of values: patent US20200010567A1

# EC50 per entry
Molecular target: T1, GA10: H-(GA)10HHHHHH-NH2 (C-terminal amide)
T1 peptide: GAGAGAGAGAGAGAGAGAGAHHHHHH
Assay: indirect ELISA, coated His-tagged peptide
measured_parameter: EC50 (nM)

NI-308.18F7 (antibody, V domains shown, Recombinant complete human IgG1, kappa) VH: QVQLQESGPGLVKPSETLSVTCTVSGGSINDYYWNWIRQPAGKGLEWIGRIYASGTINYNPSLQSRVTMSIDTSKNQFSLDLISVSAADTAVYYCARWGQVVGDYYYGMDVWGQGTTVTVSS VL: EIVLTQSPLSLSVTPGEPASISCKSSQSLQHTNGYNYLDWYLLKPGQSPQLLIFLTSNRASGVPDRFSGSGSGTNFTLKISRVEAEDVGVYYCMEGIQLWTFGQGTKLEIK = 0.78
NI-308.28G1 (antibody, V domains shown, Recombinant complete human IgG1, kappa) VH: QVQLQESGPRLVKPSETLSLTCTVAGGSVNSYYWTWIQQSPGKGLEWLGRIYIAGRTNYNPSLTSRIALSVDTSRNQLSLKLTSVTAADTAIYYCARWGAESGDYYYGVDVWGPGTLVTVSS VL: EIVMTQSPLSLPVTPGEPASISCKSSEGLLHSNGYTYLDWYLQKPGQAPQLLIFLASNRAAGVPDRFSGSGSGTDFTLKISRVEAEDVGVYYCMQAIQSPWTFGPGTKVEIK = 0.9
NI-308.5G2 (antibody, V domains shown, Recombinant complete human IgG1, kappa) VH: EVQLVQSGADLRNPGASVTVSCTASGYHFADNAINWLRQAPGQRLEWMGWINIYSGNTKYSQNFQGRVTFTRNTSASTAFMHLRSLRSEDTAVYFCARDPDSSGYYLPYFDYWGQGTLVTVSS VL: DIQLTQSPDSLTLSLGERATINCKSSQSVFYNSNNKNYLAWYQQKPGQPPKLLMYWASTRESGVTDRFSGSGSGTDFTLTITNLQAEDVAVYYCQQFYSSPLTFGGGTKVEIK = 5.7
NI-308.6B11 (antibody, V domains shown, Recombinant complete human IgG1, kappa) VH: EVQLVQSGAEVKRPGASVKVSCKVSGYTLTELSMHWVRQAPGKGLEWMGGFDPEDGETVYAQKFQGRVTMTEDTSTDTAYMELSSLRSEDTALYHCATYGSSWHWNEGNEGSYYFDYWGQGTLVTVSS VL: CDIQMTQSPSSLSASVGDRVTITCQASQDISIYLNWYQQKPGKAPKLLIYDASNLETGVPSRFSGSGSGTDFTFTISGLQPEDVARYYCQQYDDLPITFGQGTRLEIK = 27.7
